target-system: human Claudin-6 (CLDN6) (human) (UniProt P56747)
assay-protocol: FACS, 0.3 ug Ab, ARK2 cells (2nd Ab only 1351.21)
measure-name: FACS fluorescence

- AB3-2 (antibody, V domains shown, humanized) VH: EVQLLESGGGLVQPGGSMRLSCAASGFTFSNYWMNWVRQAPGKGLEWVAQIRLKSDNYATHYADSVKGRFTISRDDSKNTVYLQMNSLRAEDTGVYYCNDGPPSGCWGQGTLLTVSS VL: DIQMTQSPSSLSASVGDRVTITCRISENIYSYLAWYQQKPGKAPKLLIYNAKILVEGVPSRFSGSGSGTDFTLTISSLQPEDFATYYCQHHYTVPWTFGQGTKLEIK: 14700
- AB3-3 (antibody, V domains shown, humanized) VH: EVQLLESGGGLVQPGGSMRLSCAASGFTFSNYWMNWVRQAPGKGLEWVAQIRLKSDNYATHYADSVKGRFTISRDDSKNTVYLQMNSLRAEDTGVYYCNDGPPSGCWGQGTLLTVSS VL: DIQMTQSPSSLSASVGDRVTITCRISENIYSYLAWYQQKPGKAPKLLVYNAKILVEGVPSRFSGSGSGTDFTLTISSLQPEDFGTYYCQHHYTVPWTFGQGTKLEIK: 1160
- AB3-4 (antibody, V domains shown, humanized) VH: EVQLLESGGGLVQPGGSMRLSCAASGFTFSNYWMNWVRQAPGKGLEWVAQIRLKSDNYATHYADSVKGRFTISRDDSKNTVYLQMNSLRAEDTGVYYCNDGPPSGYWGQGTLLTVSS VL: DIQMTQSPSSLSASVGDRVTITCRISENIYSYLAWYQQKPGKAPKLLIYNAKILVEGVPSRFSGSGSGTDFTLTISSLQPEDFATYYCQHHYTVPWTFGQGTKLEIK: 1320
- AB4-12 (antibody, V domains shown, humanized) VH: QVQLVQSGAEVKKPGASVKMSCKASGYTFTSYTMHWIRQAPGQGQEWIGYINPSSTYTHYIKKFKDRATLTADKSTSTAYMELSSLRSEDTAVYYCSRGELGGFAYWGQGTLVTVSS VL: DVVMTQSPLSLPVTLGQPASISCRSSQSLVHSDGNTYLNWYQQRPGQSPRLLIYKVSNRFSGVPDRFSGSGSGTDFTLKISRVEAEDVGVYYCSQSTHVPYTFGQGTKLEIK: 9690
- AB4-9 (antibody, V domains shown, humanized) VH: QVQLVQSGAEVKKPGASVKMSCKASGYTFTSYTMHWIRQAPGQGLEWIGYINPSSTYTHYIKKFKDRATLTADTSTSTAYMELSSLRSEDTAVYYCSRGELGGFAYWGQGTLVTVSS VL: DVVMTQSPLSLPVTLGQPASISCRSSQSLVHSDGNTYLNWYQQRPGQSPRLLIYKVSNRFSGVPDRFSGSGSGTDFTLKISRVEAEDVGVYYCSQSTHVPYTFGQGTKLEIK: 3060
- AB4-5 (antibody, V domains shown, humanized) VH: QVQLVQSGAEVKKPGASVKMSCKASGYTFTSYTMHWIRQAPGQGQEWIGYINPSSTYTHYAQKFQGRATLTADTSTSTAYMELSSLRSEDTAVYYCSRGELGGFAYWGQGTLVTVSS VL: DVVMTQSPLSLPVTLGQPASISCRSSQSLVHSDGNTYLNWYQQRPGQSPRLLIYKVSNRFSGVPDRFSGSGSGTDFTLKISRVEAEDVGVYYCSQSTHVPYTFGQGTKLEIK: 967
- AB11-2 (antibody, V domains shown, humanized) VH: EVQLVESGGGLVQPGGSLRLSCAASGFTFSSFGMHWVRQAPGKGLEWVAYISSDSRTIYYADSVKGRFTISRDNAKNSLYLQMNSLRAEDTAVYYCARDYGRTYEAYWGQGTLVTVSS VL: DIVMTQSPDSLAVSLGERATINCRASKSVSTSGYSYIHWYQQKPGQPPKLLIYLASNLESGVPDRFSGSGSGTDFTLTISSLQAEDVAVYYCQHSRELPLTFGQGTKLEIK: 1400
- AB1-11 (antibody, V domains shown, humanized; also called humanized AB1-11; HU-11) VH: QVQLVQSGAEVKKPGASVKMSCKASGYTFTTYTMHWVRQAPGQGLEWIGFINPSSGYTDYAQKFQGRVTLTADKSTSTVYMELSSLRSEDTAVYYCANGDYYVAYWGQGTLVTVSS VL: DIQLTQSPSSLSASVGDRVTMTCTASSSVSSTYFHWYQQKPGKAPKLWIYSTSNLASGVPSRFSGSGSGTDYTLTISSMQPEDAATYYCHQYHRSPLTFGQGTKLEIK: 53900
- AB11-3 (antibody, V domains shown, humanized) VH: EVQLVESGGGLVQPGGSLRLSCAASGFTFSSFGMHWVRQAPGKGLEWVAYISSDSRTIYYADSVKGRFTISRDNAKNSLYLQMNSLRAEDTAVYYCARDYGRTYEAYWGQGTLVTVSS VL: DIVLTQSPDSLAVSLGERATINCRASKSVSTSGYSYIHWYQQKPGQPPKLLIYLASNLESGVPDRFSGSGSGTDFTLTISSVQAEDVAVYYCQHSRELPLTFGQGTKLELK: 1320
- AB4-4 (antibody, V domains shown, humanized) VH: QVQLVQSGAEVKKPGASVKMSCKASGYTFTSYTMHWIRQAPGQGLEWIGYINPSSTYTHYAQKFQGRATLTADTSTSTAYMELSSLRSEDTAVYYCSRGELGGFAYWGQGTLVTVSS VL: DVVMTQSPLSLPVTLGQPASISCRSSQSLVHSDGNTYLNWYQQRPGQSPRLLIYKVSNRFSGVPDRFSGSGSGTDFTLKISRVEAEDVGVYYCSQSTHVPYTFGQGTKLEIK: 1050
